System: DMS-79
Test: Antiproliferative activity against human DMS79 cells after 72 hrs
Type: functional, cell-based
Details: DMS-79, 72 h
Property: pIC50; scope: individual compounds
pIC50 is a log-scale quantity: -log10 of the concentration expressed in molar.

As a guide, the following entries are already answered.
Consider CCn1c2ccccc2c2cc(S(=O)(=O)Nc3cc(OC)c(OC)c(OC)c3)ccc21 . Its measured pIC50 is 5.72

Input COc1cc(NS(=O)(=O)c2ccc3c(c2)c2ccccc2n3C)cc(OC)c1OC . Output pIC50: 5.68

Recorded pIC50 (compound COc1ccc(/C=C\c2cc(OC)c(OC)c(OC)c2)cc1O ): 6.91

More entries:
// sample COc1cc([C@@H]2c3cc4c(cc3[C@H](O)[C@H]3COC(=O)[C@H]23)OCO4)cc(OC)c1OC , its pIC50 was 7.64

====

Tested on: MCF7
Test: Antiproliferative activity against human MCF7 cells after 72 hrs
Assay type: functional, cell-based
Conditions: MCF7, 72 h
value.kind: pIC50
Scale: pIC50 equals -log10([C]), with [C] in mol/L.

COc1cc(NS(=O)(=O)c2ccc3c(c2)c2ccccc2n3C)cc(OC)c1OC has a reported pIC50 of 7.15

Recorded result, CCn1c2ccccc2c2cc(S(=O)(=O)Nc3cc(OC)ccc3OC)ccc21 , pIC50: 7.01

Looking up CCn1c2ccccc2c2cc(S(=O)(=O)Nc3ccc(OC)cc3OC)ccc21 , I found its pIC50 recorded as 7.32

Summary for this compound, CCn1c2ccccc2c2cc(S(=O)(=O)Nc3cc(OC)c(OC)c(OC)c3)ccc21 : pIC50 is 7.05

Lab book: pIC50 of COc1cc([C@@H]2c3cc4c(cc3[C@H](O)[C@H]3COC(=O)[C@H]23)OCO4)cc(OC)c1OC noted as 7.82

Consider CCn1c2ccccc2c2cc(S(=O)(=O)Nc3cc(OC)c(Cl)cc3OC)ccc21 . Its measured pIC50 is 7.17

Record summary for COc1ccc(/C=C\c2cc(OC)c(OC)c(OC)c2)cc1O : reported pIC50 = 7.92

====

Test system: MOLT-3
Assay: Antiproliferative activity against human Molt3 cells after 72 hrs
Type: functional, cell-based
Details: MOLT-3, 72 h
value.kind: IC50 (nM)
Answer with a number only, understood to be in nM.

Value sought: IC50, system MOLT-3, item CCn1c2ccccc2c2cc(S(=O)(=O)Nc3cc(OC)c(Cl)cc3OC)ccc21 . Result: 67

The recorded IC50 with MOLT-3 for COc1ccc(/C=C\c2cc(OC)c(OC)c(OC)c2)cc1O was 9.3

Simply: COc1cc(NS(=O)(=O)c2ccc3c(c2)c2ccccc2n3C)cc(OC)c1OC , MOLT-3, IC50 = 19

# value of IC50, MOLT-3, item CCn1c2ccccc2c2cc(S(=O)(=O)Nc3cc(OC)ccc3OC)ccc21 = 49

Tested system MOLT-3; IC50 recorded for CCn1c2ccccc2c2cc(S(=O)(=O)Nc3ccc(OC)cc3OC)ccc21 was 48

IC50 for MOLT-3 with input COc1cc([C@@H]2c3cc4c(cc3[C@H](O)[C@H]3COC(=O)[C@H]23)OCO4)cc(OC)c1OC equals 14

---
The recorded IC50 with MOLT-3 for CCn1c2ccccc2c2cc(S(=O)(=O)Nc3cc(OC)c(OC)c(OC)c3)ccc21 was 20
